# credit: patent US20090069304A1

biological target: MMP-2 (Homo sapiens, UniProt P08253); construct: purchased Calbiochem (EMD/MERCK Biosciences); test: Enzyme inhibiting activity of MMPs (fluorogenic peptide substrate), MMP-2; assay type: biochemical; details: human MMP-2; substrate MOCAc-Pro-Leu-Gly-Leu-A2Pr(DNP)-Ala-Arg-NH2
Sequence (P08253 110-660): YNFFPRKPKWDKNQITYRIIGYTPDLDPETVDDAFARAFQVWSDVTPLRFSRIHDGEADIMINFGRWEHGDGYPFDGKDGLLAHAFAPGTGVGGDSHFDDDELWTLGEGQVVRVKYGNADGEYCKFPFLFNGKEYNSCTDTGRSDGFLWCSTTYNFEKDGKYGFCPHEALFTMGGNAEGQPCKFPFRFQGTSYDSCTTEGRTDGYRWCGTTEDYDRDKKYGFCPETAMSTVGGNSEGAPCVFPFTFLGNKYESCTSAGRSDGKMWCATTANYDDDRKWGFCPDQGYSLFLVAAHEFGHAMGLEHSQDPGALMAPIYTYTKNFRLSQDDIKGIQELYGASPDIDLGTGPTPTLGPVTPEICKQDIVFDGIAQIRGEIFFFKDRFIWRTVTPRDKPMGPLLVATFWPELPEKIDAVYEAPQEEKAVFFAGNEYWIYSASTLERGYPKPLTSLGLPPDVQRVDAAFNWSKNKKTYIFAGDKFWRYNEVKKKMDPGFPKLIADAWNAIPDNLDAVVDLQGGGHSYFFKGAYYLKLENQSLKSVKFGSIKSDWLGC
Could you please report measured IC50 for the items listed next?

Task: What value of measured IC50 is listed for C[C@@H](NS(=O)(=O)N1CCN(c2ccc(C#Cc3ccc4cc(OCC5CC5)ccc4c3)cc2)CC1)C(=O)O [Compound I-32] ?
Result: 1 to 10 µM

Task: What value of IC50 has been recorded for this entry: COc1ccc2cc(C#Cc3ccc(N4CCN(S(=O)(=O)N[C@H](C(=O)O)C(C)C)CC4)cc3)ccc2c1 [Compound I-5]
Result: > 10 µM

Task: Using the record for COc1ccc2cc(C#Cc3ccc(N4CCN(S(=O)(=O)N[C@H](C)C(=O)O)C[C@@H]4C)cc3)ccc2c1 [Compound I-53] , report its IC50.
Result: 1 to 10 µM

Task: # IC50 lookup, item COc1ccc2cc(C#Cc3ccc(C4CCN(S(=O)(=O)N[C@H](C)C(=O)O)CC4)cc3)ccc2c1 [Compound I-11]
Result: > 10 µM

Task: Given COc1ccc2cc(C#Cc3ccc(N4CCN(S(=O)(=O)N[C@H](C)C(=O)O)C(C)C4)cc3)ccc2c1 (stereo partly shown) [Compound I-47] , state its recorded IC50.
Result: > 10 µM

Task: # IC50 lookup, item COc1ccc2cc(COc3ccc(C4CCN(S(=O)(=O)NC(C)C(=O)O)CC4)cc3)ccc2c1 (stereo not shown) [Compound I-19]
Result: > 10 µM

Task: Field request: IC50 | item: CON=Cc1ccc2cc(C#Cc3ccc(N4CCN(S(=O)(=O)N[C@H](C)C(=O)O)CC4)cc3)ccc2c1 [Compound I-66]
Result: > 10 µM

Task: Sample CCC[C@H](NS(=O)(=O)N1CCN(c2ccc(C#Cc3ccc4cc(OCC)ccc4c3)cc2)CC1)C(=O)O [Compound I-28] — what was its IC50?
Result: > 10 µM

Task: Query: IC50; subject: COc1ccc2cc(/C=C/c3ccc(N4CCN(S(=O)(=O)N[C@@H](C)C(=O)O)CC4)cc3)ccc2c1 [Compound I-21]
Result: > 10 µM

Task: What does the data say about its IC50? Entry: CCC[C@H](NS(=O)(=O)N1CCC(c2ccc(C=Cc3ccc4cc(OC)ccc4c3)cc2)CC1)C(=O)O [Compound I-24]
Result: > 10 µM
